molecular target: nuclear receptor 4A1 (NR4A1) (Homo sapiens); test: tryptophan fluorescence quenching with the isolated LBD ([…])
Sequence (P22736 360-598 limits assumed): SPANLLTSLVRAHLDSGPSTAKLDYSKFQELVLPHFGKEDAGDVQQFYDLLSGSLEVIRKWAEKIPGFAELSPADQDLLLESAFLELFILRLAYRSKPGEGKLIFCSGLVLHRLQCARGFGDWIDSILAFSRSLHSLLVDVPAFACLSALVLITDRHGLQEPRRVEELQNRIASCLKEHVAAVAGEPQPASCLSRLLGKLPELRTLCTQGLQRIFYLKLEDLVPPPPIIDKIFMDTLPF
property measured: Kd (µM)
Hi! Could you send only the number? It should be in µM, unit omitted.

O=C1C[C@@H](c2ccc(O)cc2)Oc2cc(O)cc(O)c21 [naringenin] has a reported Kd of 4.5
